tested on: E. coli TESEC Mtb Alr; experiment: growth (OD600 after 10 h); higher = more growth (less inhibition); settings: arabinose 10000000 nM; compound 0.1 mM; raw OD600 reference: median of DMSO wells […], cell-free background 0.052
Counter-ions that a name gives are not always drawn.

molecule | growth
Cc1cc2c(cc1S(N)(=O)=O)S(=O)(=O)CCC2 | 0.254
CC(=O)NS(=O)(=O)c1ccc(N)cc1 [Sulfacetamide sodic hydrate] | 0.353
CNC(C)CCC=C(C)C (stereo not drawn) [Isometheptene mucate] | 0.314
COc1ccc2[nH]cc(CCNC(C)=O)c2c1 | 0.354
CC[N+](C)(C)Cc1ccccc1Br [Bretylium tosylate] | 0.324
COc1ccc([C@@H]2CC(=O)c3c(O)cc(O[C@@H]4O[C@H](CO[C@@H]5O[C@@H](C)[C@H](O)[C@@H](O)[C@H]5O)[C@@H](O)[C@H](O)[C@H]4O)cc3O2)cc1O | 0.388
CC(=O)N(CC(O)CO)c1c(I)c(C(=O)NCC(O)CO)c(I)c(C(=O)NCC(O)CO)c1I (stereo not drawn) [Iohexol] | 0.343
O=C1Nc2ccc(Cl)cc2[C@@](C#CC2CC2)(C(F)(F)F)O1 | 0.049
CCCNC(C)C(=O)Nc1c(C)csc1C(=O)OC (stereo not drawn) [Articaine hydrochloride] | 0.316
CC(C)(C)NC[C@H](O)COc1cccc2c1CCCC2=O [(-) -Levobunolol hydrochloride] | 0.334
Nc1nc(/C(=C/CC(=O)O)C(=O)N[C@@H]2C(=O)N3C(C(=O)O)=CCS[C@H]23)cs1 | 0.273
C[C@H](N[C@@H](CCc1ccccc1)C(=O)O)C(=O)N1CCC[C@H]1C(=O)O [Enalaprilat dihydrate] | 0.308
NC(=O)OCC(O)COc1ccc(Cl)cc1 (stereo not drawn) [Chlorphensin carbamate] | 0.366
CC(C)(C)CC(C)(C)c1ccc(OCCOCC[N+](C)(C)Cc2ccccc2)cc1 [Benzethonium chloride] | 0.0504
CCC[C@@H]1C[C@@H](C(=O)N[C@@H]([C@H]2O[C@H](SC)[C@H](O)[C@@H](O)[C@H]2O)[C@@H](C)O)N(C)C1 [Lincomycin hydrochloride] | 0.12
CCCCOc1ccc(CC(=O)NO)cc1 | 0.284
CN1CCCCC1CCN1c2ccccc2Sc2ccc([S+](C)[O-])cc21 (stereo not drawn) [Mesoridazine besylate] | 0.3
CNCCCN1c2ccccc2CCc2ccccc21 [Desipramine hydrochloride] | 0.287
CN(C)C(=N)NC(=N)N [Metformin hydrochloride] | 0.349
NC[C@@H]1O[C@@H](O[C@H]2[C@H](O)[C@@H](O[C@H]3O[C@H](CO)[C@@H](O)[C@H](N)[C@H]3O)[C@H](N)C[C@@H]2N)[C@@H](O)[C@H](O)[C@H]1O [Kanamycin A sulfate] | 0.353
CC1(C)S[C@@H]2[C@H](NC(=O)[C@H](N)c3ccccc3)C(=O)N2[C@H]1C(=O)O [Ampicillin trihydrate] | 0.338
CC(C(=O)O)c1ccc(-c2ccccc2)c(F)c1 (stereo not drawn) | 0.286
CC(=O)N(CC(O)CN(C(C)=O)c1c(I)c(C(=O)NCC(O)CO)c(I)c(C(=O)NCC(O)CO)c1I)c1c(I)c(C(=O)NCC(O)CO)c(I)c(C(=O)NCC(O)CO)c1I (stereo not drawn) | 0.334
NC(Cc1cc(I)c(Oc2cc(I)c(O)c(I)c2)c(I)c1)C(=O)O (stereo not drawn) | 0.359
CC(C)/N=c1\cc2n(-c3ccc(Cl)cc3)c3ccccc3nc-2cc1Nc1ccc(Cl)cc1 | 0.0687
Cn1c(NCCN(CCO)CCCc2ccc([N+](=O)[O-])cc2)cc(=O)n(C)c1=O | 0.298
CCCCc1nc(Cl)c(CO)n1Cc1ccc(-c2ccccc2-c2nnn[nH]2)cc1 | 0.279
COc1c(N2C[C@@H]3CCCN[C@@H]3C2)c(F)cc2c(=O)c(C(=O)O)cn(C3CC3)c12 | 0.0516
